The following compounds are listed with their measured melting point values.

[
  {
    "compound": "O=C(O)CCCCCCCCCSc1ccccc1O",
    "melting point": "58 to 59 °C"
  },
  {
    "compound": "O=C(Nc1ccc(-n2nc(C(F)(F)F)cc2C(F)(F)F)cc1)c1c(F)ccc([N+](=O)[O-])c1F",
    "melting point": "187 to 189 °C"
  },
  {
    "compound": "Cc1c(CC(F)(F)C(F)(F)C(F)(F)F)c(-c2ccc(S(N)(=O)=O)cc2)c2n1CCC2",
    "melting point": "221 °C"
  },
  {
    "compound": "COc1ccc2c(c1)C(=O)C(Cc1ccccc1)CN2S(=O)(=O)c1ccc(C)cc1 (centres undefined)",
    "melting point": "101 to 103 °C"
  },
  {
    "compound": "CCCc1c(OCCCOc2ccc(C(=O)OCC)cc2Cl)ccc(C(C)=O)c1O",
    "melting point": "101 to 102 °C"
  },
  {
    "compound": "O=C1C(=O)N(CC(F)(F)F)c2ccccc21",
    "melting point": "161 to 163 °C"
  },
  {
    "compound": "CCCCn1c(COCC)nc2c(N)nc3ccc(-c4cccnc4)cc3c21",
    "melting point": "220 to 222 °C"
  },
  {
    "compound": "CN=C(NOC)c1nn(-c2c(Cl)cc(C(F)(F)F)cc2Cl)c(N)c1S(C)=O (centres undefined)",
    "melting point": "139 to 142 °C"
  },
  {
    "compound": "COC(=O)CNC(=O)c1ccc(NS(=O)(=O)c2ccc(F)cc2)cn1",
    "melting point": "146 to 148 °C"
  }
]

----------
[
  {
    "structureAsSmiles": "Cc1ccc(N(c2ccccc2)c2ccc(-c3ccc(-c4ccc(N(c5ccccc5)c5ccc(C)cc5)cc4)cc3)cc2)cc1",
    "melting point": "167 to 168 °C"
  },
  {
    "structureAsSmiles": "O=C(c1ccccc1Nc1ccc(O)cc1)N1CCOCC1",
    "melting point": "214 to 216 °C"
  },
  {
    "structureAsSmiles": "COC(=O)c1ccc(-c2ccc(Cl)cc2)nc1",
    "melting point": "124 to 126 °C"
  },
  {
    "structureAsSmiles": "OCCON=Cc1ccc(-c2ccccc2)cc1",
    "melting point": "116 to 118 °C"
  },
  {
    "structureAsSmiles": "C#CC1(c2ccc(OC)c(OC3CCCC3)c2)CC(=O)C1",
    "melting point": "58 to 59 °C"
  }
]

----------
Below, each entry is listed with its recorded melting point.

[
  {
    "molecule": "Nc1ccc(C(=O)O)c2c1OCCO2",
    "melting point": "186 °C"
  },
  {
    "molecule": "COc1cc(COc2nn(-c3ccccc3)cc2/C=C/C=O)ccc1OCc1nc(-c2ccco2)oc1C",
    "melting point": "134 to 135 °C"
  },
  {
    "molecule": "N#Cc1cccc(NC(=O)CN2CCC(Cc3ccccc3)CC2)c1",
    "melting point": "88 to 90 °C"
  },
  {
    "molecule": "NCC1c2ccccc2C=Cc2ccccc21",
    "melting point": "95 to 96.5 °C"
  },
  {
    "molecule": "CC(C)(C)C(=O)C(Oc1ccc(Cl)cc1)n1ncnc1S (stereo unspecified)",
    "melting point": "134 to 136 °C"
  },
  {
    "molecule": "CN1CCN(C2=Nc3ccccc3Sc3ccccc32)C[C@@H]1CCc1ccccc1",
    "melting point": "44 to 54 °C"
  }
]

----------
measureName: melting point

[
  {
    "molecule": "O=C(NO)c1ccc(I)cc1O",
    "result": "195 to 196 °C"
  },
  {
    "molecule": "COCCOc1cc2ncc(C#N)c(O)c2cc1OCc1ccccc1",
    "result": "> 250 °C"
  },
  {
    "molecule": "COc1ccc2[nH]c(C=Cc3ccc(OC)c(OC)c3)nc2c1",
    "result": "246 to 249 °C"
  },
  {
    "molecule": "COc1ccc2nc3ccc(C(C)=O)cn3c(=O)c2c1",
    "result": "194 to 196 °C"
  },
  {
    "molecule": "CN(C)C(=O)C(C)(C)c1cc(C#N)ccc1O",
    "result": "146 to 148 °C"
  },
  {
    "molecule": "Cc1ccnc2[nH]c(=O)c(CC(=O)N(CCNC(=O)OC(C)(C)C)CC(=O)O)cc12",
    "result": "133 to 136 °C"
  },
  {
    "molecule": "CC(C)(NCCCn1ccnc1)c1ccc(-c2ccc(OCc3ccccc3)cc2)cc1",
    "result": "93 to 95 °C"
  },
  {
    "molecule": "N#CCCN1CC(=O)N(CCC#N)CC1=O",
    "result": "166 °C"
  },
  {
    "molecule": "Clc1ccc(C(Cl)c2cc3cc(Br)ccc3o2)cc1 (stereo unspecified)",
    "result": "83 to 85 °C"
  },
  {
    "molecule": "CNC(=O)NC1CCCCc2sccc21 (stereo unspecified)",
    "result": "220 to 222 °C"
  },
  {
    "molecule": "O=c1[nH]c(N2CCN(CCO)CC2)cc2c(F)cccc12",
    "result": "207 to 208 °C"
  }
]

----------
measureName: melting point

[
  {
    "compound": "C=Cc1ccccc1C1C(C(=O)OC)=C(C)NC(C)=C1C(=O)OC",
    "result": "140 to 148 °C"
  },
  {
    "compound": "O=C1CC(=O)CC(c2ccc(Cl)c(Cl)c2)C1",
    "result": "198 to 200 °C"
  },
  {
    "compound": "CCc1ccc2c(c1)C=Cc1cc(C)ccc1C2c1cn(Cc2ccc(C(=O)O)o2)c(=O)[nH]c1=O (stereo not given)",
    "result": "253 °C"
  },
  {
    "compound": "COc1cc(C(=O)O)ccc1Cc1c(Cl)n(C)c2cc(Cl)c(CCNC(=O)N(C)C)cc12",
    "result": "207 °C"
  },
  {
    "compound": "CCOC(=O)c1ccc(OCCC2CCN(c3ccc(F)nn3)CC2)cc1",
    "result": "132 °C"
  },
  {
    "compound": "COc1ccc(C(=O)Nc2ccc(F)cc2)cc1NS(=O)(=O)c1cccc(C#N)c1",
    "result": "221 to 225 °C"
  },
  {
    "compound": "CN(C)Nc1c([N+](=O)[O-])cc(C(F)(F)F)c(N)c1[N+](=O)[O-]",
    "result": "150 to 154 °C"
  },
  {
    "compound": "CC(=O)SCCCC1(C)C(=O)N2CCCC(C(=O)O)N2C1=O (stereo not given)",
    "result": "160 to 161 °C"
  },
  {
    "compound": "CN(C[C@H]1CC[C@H](C(=O)O)CC1)c1ncc(Br)cn1",
    "result": "111 to 113 °C"
  },
  {
    "compound": "N#Cc1c(N2CCN(C(=O)c3ccco3)CC2)c2cc(Cl)cnc2[nH]c1=O",
    "result": "303 °C"
  },
  {
    "compound": "c1cc(CN2CCCCC2)cc(OCCCNc2nccc3ccccc23)c1",
    "result": "103 to 105 °C"
  },
  {
    "compound": "c1ccc(C2CCNCc3ccccc3O2)cc1 (stereo not given)",
    "result": "73 to 74 °C"
  },
  {
    "compound": "CC(=O)OC1Oc2ccc(Br)cc2C1(C)C (stereo not given)",
    "result": "73 to 80 °C"
  },
  {
    "compound": "CC(=O)NC1CCC(CNc2nc3c(s2)CCOc2ccccc2-3)CC1 (stereo not given)",
    "result": "69 to 72 °C"
  },
  {
    "compound": "O=c1c2ccccc2cc(Cl)c2ccccc12",
    "result": "118 to 121 °C"
  },
  {
    "compound": "COC(=O)N(C(=O)C(=O)c1cn(Cc2ccc(Cl)cc2)c2ccccc12)c1ccc2ncccc2c1",
    "result": "178 °C"
  },
  {
    "compound": "OC(c1ccc(F)cc1)(c1ccc(F)cc1)C1CCN(Cc2ccccc2)CC1",
    "result": "113 to 115 °C"
  },
  {
    "compound": "O=C(O)C1=Cc2cc(-c3ccc4c(c3)OCO4)ccc2SCC1",
    "result": "227 to 229 °C"
  },
  {
    "compound": "CC(c1oc2ccccc2c(=O)c1-c1cccc(F)c1)n1nc(-c2cnc(N)nc2)c2c(N)ncnc21 (stereo not given)",
    "result": "264 to 268 °C"
  },
  {
    "compound": "C#CC1(Oc2ccc(F)cc2[N+](=O)[O-])CCN(C)CC1",
    "result": "70 to 73 °C"
  }
]
